# tested-target: CRF1 receptor (hCRF1α) (Homo sapiens, UniProt P34998)
# Construct: host or cells: Cos7 cells, transient transfection (PEI), pcDNA3.0/3.1 vector
# Sequence (P34998 24-415): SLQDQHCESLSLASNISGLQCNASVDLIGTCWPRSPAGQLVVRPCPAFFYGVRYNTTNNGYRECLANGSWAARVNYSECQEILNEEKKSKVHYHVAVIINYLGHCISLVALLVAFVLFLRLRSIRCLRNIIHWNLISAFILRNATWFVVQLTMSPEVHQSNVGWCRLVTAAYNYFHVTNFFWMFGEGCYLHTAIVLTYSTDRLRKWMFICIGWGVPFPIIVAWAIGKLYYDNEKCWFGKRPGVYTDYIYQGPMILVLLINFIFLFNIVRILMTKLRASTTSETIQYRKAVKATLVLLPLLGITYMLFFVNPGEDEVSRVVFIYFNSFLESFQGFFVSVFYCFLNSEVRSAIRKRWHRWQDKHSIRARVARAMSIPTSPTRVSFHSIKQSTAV
# run-description: IP1 accumulation (IP-one Gq) in Cos7 cells transfected with hCRF1α, agonist stimulation
# Format: cell-based
# test-parameters: IP1, hCRF1α, Cos7; 90 min at 37°C, 50 mmol/L LiCl; 1 pmol/L to 10 µmol/L agonist; mean ± SEM, n = 5
# Procedure: Plasmids containing hCRF1α and hCRF2α (GenBank accession numbers AY457172 and AY449734) were obtained from the cDNA Resource Centre (Bloomsburg University) and are referred to as CRF1 and CRF2 in this manuscript. […] The IP‐one Gq assay kit (Cisbio) was used to quantify accumulated myo‐inositol‐1‐phosphate (IP1), a by‐product of IP3 produced after receptor‐mediated Gαq activation in Cos7 and HEK‐293S cells. […] IP1 concentrations were calculated from a standard curve generated in duplicate. […]
No end group written: not given here.
value-kind: EC50 (nM)
Reply numerically in nM, unit not repeated.

Recorded EC50 for DNPSLSIDLTFHLLRTLLELARTQSQRERAEQNRIIFDSV-NH2 [UCN1] , please?
7.76

---

# tested-target: CRF2 receptor (hCRF2α) (Homo sapiens, UniProt Q13324)
# Construct: host or cells: Cos7 cells, transient transfection (PEI), pcDNA3.0/3.1 vector
# Sequence (Q13324 whole entry): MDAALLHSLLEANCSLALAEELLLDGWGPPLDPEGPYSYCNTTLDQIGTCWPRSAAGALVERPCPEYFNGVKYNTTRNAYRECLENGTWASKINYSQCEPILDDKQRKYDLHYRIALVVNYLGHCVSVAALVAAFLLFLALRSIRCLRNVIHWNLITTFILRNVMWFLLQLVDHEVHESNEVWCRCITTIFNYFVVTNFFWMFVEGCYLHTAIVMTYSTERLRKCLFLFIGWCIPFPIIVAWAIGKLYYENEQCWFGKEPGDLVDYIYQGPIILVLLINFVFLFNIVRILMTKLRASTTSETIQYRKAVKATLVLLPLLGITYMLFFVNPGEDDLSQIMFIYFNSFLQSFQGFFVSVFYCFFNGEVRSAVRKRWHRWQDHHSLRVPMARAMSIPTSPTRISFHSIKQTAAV
# run-description: IP1 accumulation (IP-one Gq) in Cos7 cells transfected with hCRF2α, agonist stimulation
# Format: cell-based
# test-parameters: IP1, hCRF2α, Cos7; 90 min at 37°C, 50 mmol/L LiCl; 1 pmol/L to 10 µmol/L agonist; mean ± SEM, n = 5
No end group written: not given here.
value-kind: EC50 (nM)
Entry rule: numbers only, all in nM.

Using the record for DNPSLSIDLTFHLLRTLLELARTQSQRERAEQNRIIFDSV-NH2 [UCN1] , report its EC50.
4.68

---

# tested-target: CRF2 receptor (hCRF2α) (Homo sapiens)
# Construct: host or cells: Cos7 cells, transient transfection (PEI), pcDNA3.0/3.1 vector
# run-description: ERK1/2 phosphorylation (AlphaLISA Surefire Ultra) in Cos7 cells transfected with hCRF2α
# Format: cell-based
# test-parameters: pERK1/2, hCRF2α, Cos7; 7 min at 37°C; 1 pmol/L to 1 µmol/L agonist; mean ± SEM, n = 5
No end group written: not given here.
value-kind: pEC50
Bear in mind: pEC50 is minus log10 of a mol/L concentration; give just that figure.

# lookup: pEC50 of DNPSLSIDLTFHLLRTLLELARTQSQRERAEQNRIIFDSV-NH2 [UCN1]
8.25
